Source listed as patent US20220387457A1.

experiment: Plasma pharmacokinetics of CKLP1 and levcromakalim after topical dosing in hound dogs; format: in vivo, hound dog; conditions: hound, dog, plasma, topical or ocular, 10 mM CKLP1, 50 µL in each of both eyes, levcromakalim after topical 10 mM CKLP1 once daily; Day 8
result.type: Cmax

What does the record list as Cmax for CC1(C)Oc2ccc(C#N)cc2[C@@H](N2CCCC2=O)[C@@H]1O [Levcromakalim, levcromakalim, reference compound] ?
1 ng/mL

###

test: Plasma pharmacokinetics, 28-day topical ophthalmic dosing in beagle dogs; details: male, beagle, dog, in vivo, topical or ocular, 0.81 mg/kg, t1/2
result.type: half-life (h)
Record the value in h, omitting the unit from your answer.

What does the record list as half-life for `CC1(C)Oc2ccc(C#N)cc2[C@@H](N2CCCC2=O)[C@@H]1OP(=O)(O)O` ?
4.82

###

assay: Toxicokinetics after escalating intravenous doses of CKLP1 in beagles; format: in vivo, beagle dog; details: female, beagle, dog, in vivo, iv, 1.5 mg/kg
result.type: half-life

What does the record list as half-life for CC1(C)Oc2ccc(C#N)cc2[C@@H](N2CCCC2=O)[C@@H]1OP(=O)(O)O [CKLP1] ?
4.68 h

###

experiment: Plasma pharmacokinetics, 28-day topical ophthalmic dosing in beagle dogs; details: female, beagle, dog, in vivo, topical or ocular, 1.07 mg/kg, t1/2
result.type: half-life

What does the record list as half-life for `CC1(C)Oc2ccc(C#N)cc2[C@@H](N2CCCC2=O)[C@@H]1OP(=O)(O)O` ?
4.92 h

###

experiment: Plasma pharmacokinetics, 28-day topical ophthalmic dosing in beagle dogs; details: male, beagle, dog, in vivo, topical or ocular, 0.2 mg/kg, AUC0-last
result.type: AUC(0-t) (ng·h/mL)
Record the value in ng·h/mL, omitting the unit from your answer.

What does the record list as AUC(0-t) for `CC1(C)Oc2ccc(C#N)cc2[C@@H](N2CCCC2=O)[C@@H]1OP(=O)(O)O` ?
231

###

Assay: Toxicokinetics after escalating intravenous doses of CKLP1 in beagles
Type: in vivo, beagle dog
Settings: male, beagle, dog, in vivo, iv, 5 mg/kg
Protocol: Two beagles (one male and one female) were intravenously injected with escalating doses of CKPL1 (0.05 mg/kg, 0.5 mg/kg, 1.5 mg/kg, 3 mg/kg, and 5 mg/kg) to assess the toxicity of CKLP1. […] The following parameters and endpoints were evaluated: mortality, clinical observations, body and organ weights, and food consumption. […] Toxicokinetics (TK) were determined based on the individual exposures for each animal on each sampled study day (days 1, 3, 8, 10, and 14). […]
result.type: C0 (ng/mL)
Record the value in ng/mL, omitting the unit from your answer.

What does the record list as C0 for `CC1(C)Oc2ccc(C#N)cc2[C@@H](N2CCCC2=O)[C@@H]1OP(=O)(O)O` ?
25900

###

assay: Toxicokinetics after escalating intravenous doses of CKLP1 in beagles; type: in vivo, beagle dog; settings: male, beagle, dog, in vivo, iv, 1.5 mg/kg
result.type: half-life (h)
Record the value in h, omitting the unit from your answer.

What does the record list as half-life for `CC1(C)Oc2ccc(C#N)cc2[C@@H](N2CCCC2=O)[C@@H]1OP(=O)(O)O` ?
2.91

###

experiment: Plasma pharmacokinetics, 28-day topical ophthalmic dosing in beagle dogs; settings: male, beagle, dog, in vivo, topical or ocular; 8.0%; day 28; males; read-out: mean AUC Tlast at NOAEL
result.type: AUC(0-t)

What does the record list as AUC(0-t) for `CC1(C)Oc2ccc(C#N)cc2[C@@H](N2CCCC2=O)[C@@H]1OP(=O)(O)O` ?
1260 ng·h/mL

###

assay: Toxicokinetics after escalating intravenous doses of CKLP1 in beagles; type: in vivo, beagle dog; conditions: male, beagle, dog, in vivo, iv, 5 mg/kg
result.type: AUC(0-t) (µg·h/mL)
Record the value in µg·h/mL, omitting the unit from your answer.

What does the record list as AUC(0-t) for CC1(C)Oc2ccc(C#N)cc2[C@@H](N2CCCC2=O)[C@@H]1OP(=O)(O)O [CKLP1] ?
159

###

assay: Plasma pharmacokinetics of CKLP1 and levcromakalim after topical dosing in hound dogs; type: in vivo, hound dog; settings: hound, dog, plasma, topical or ocular, 10 mM, CKLP1; topical 10 mM CKLP1 once daily; Day 8
result.type: half-life

What does the record list as half-life for CC1(C)Oc2ccc(C#N)cc2[C@@H](N2CCCC2=O)[C@@H]1OP(=O)(O)O [CKLP1] ?
4.23 h

###

assay: Toxicokinetics after escalating intravenous doses of CKLP1 in beagles; type: in vivo, beagle dog; conditions: female, beagle, dog, in vivo, iv, 0.05 mg/kg
result.type: Tmax (h)
Record the value in h, omitting the unit from your answer.

What does the record list as Tmax for `CC1(C)Oc2ccc(C#N)cc2[C@@H](N2CCCC2=O)[C@@H]1OP(=O)(O)O` ?
1

###

experiment: Toxicokinetics after escalating intravenous doses of CKLP1 in beagles; assay type: in vivo, beagle dog; conditions: female, beagle, dog, in vivo, iv, 0.05 mg/kg
result.type: AUC(0-t) (ng·h/mL)
Record the value in ng·h/mL, omitting the unit from your answer.

What does the record list as AUC(0-t) for `CC1(C)Oc2ccc(C#N)cc2[C@@H](N2CCCC2=O)[C@@H]1OP(=O)(O)O` ?
2100

###

assay: Plasma pharmacokinetics of CKLP1 and levcromakalim after topical dosing in hound dogs; format: in vivo, hound dog; conditions: hound, dog, topical or ocular; CKLP1 in plasma; topical 10 mM CKLP1
result.type: AUC (ng·h/mL)
Record the value in ng·h/mL, omitting the unit from your answer.

What does the record list as AUC for `CC1(C)Oc2ccc(C#N)cc2[C@@H](N2CCCC2=O)[C@@H]1OP(=O)(O)O` ?
87.7

###

experiment: Plasma pharmacokinetics of CKLP1 and levcromakalim after topical dosing in hound dogs; type: in vivo, hound dog; details: hound, dog, plasma, topical or ocular, 10 mM CKLP1, 50 µL in each of both eyes, levcromakalim after topical 10 mM CKLP1 once daily; Day 4; read-out: Tmax (converted)
result.type: Tmax (h)
Record the value in h, omitting the unit from your answer.

What does the record list as Tmax for CC1(C)Oc2ccc(C#N)cc2[C@@H](N2CCCC2=O)[C@@H]1O [Levcromakalim, levcromakalim, reference compound] ?
2

###

test: Toxicokinetics after escalating intravenous doses of CKLP1 in beagles; assay type: in vivo, beagle dog; details: female, beagle, dog, in vivo, iv, 0.5 mg/kg
result.type: C0 (ng/mL)
Record the value in ng/mL, omitting the unit from your answer.

What does the record list as C0 for CC1(C)Oc2ccc(C#N)cc2[C@@H](N2CCCC2=O)[C@@H]1OP(=O)(O)O [CKLP1] ?
3670

###

assay: Toxicokinetics after escalating intravenous doses of CKLP1 in beagles; format: in vivo, beagle dog; conditions: male, beagle, dog, in vivo, iv, 5 mg/kg
result.type: AUC(0-inf) (µg·h/mL)
Record the value in µg·h/mL, omitting the unit from your answer.

What does the record list as AUC(0-inf) for CC1(C)Oc2ccc(C#N)cc2[C@@H](N2CCCC2=O)[C@@H]1OP(=O)(O)O [CKLP1] ?
160

###

assay: Plasma pharmacokinetics of CKLP1 and levcromakalim after topical dosing in hound dogs; assay type: in vivo, hound dog; settings: hound, dog, plasma, topical or ocular, 10 mM, levcromakalim after topical 10 mM CKLP1 once daily; Day 8
result.type: half-life (h)
Record the value in h, omitting the unit from your answer.

What does the record list as half-life for CC1(C)Oc2ccc(C#N)cc2[C@@H](N2CCCC2=O)[C@@H]1O [Levcromakalim, levcromakalim, reference compound] ?
2.11

###

test: Toxicity and clinical signs after escalating intravenous doses of CKLP1 in beagles; format: in vivo, beagle dog; details: both sexes, beagle, dog, in vivo, iv; read-out: no-observed adverse effect level (NOAEL)
result.type: NOAEL (mg/kg)
Record the value in mg/kg, omitting the unit from your answer.

What does the record list as NOAEL for `CC1(C)Oc2ccc(C#N)cc2[C@@H](N2CCCC2=O)[C@@H]1OP(=O)(O)O` ?
3

###

experiment: Plasma pharmacokinetics, 28-day topical ophthalmic dosing in beagle dogs; conditions: both sexes, beagle, dog, in vivo
concentration at 336 h values, listed per item

CC1(C)Oc2ccc(C#N)cc2[C@@H](N2CCCC2=O)[C@@H]1OP(=O)(O)O [CKLP1] : < 2 ng/mL

Would you kindly look at the next entry?
What does the record list as concentration at 336 h for CC1(C)Oc2ccc(C#N)cc2[C@@H](N2CCCC2=O)[C@@H]1O [Levcromakalim, levcromakalim, reference compound] ?
< 0.499 ng/mL

###

experiment: Toxicokinetics after escalating intravenous doses of CKLP1 in beagles; format: in vivo, beagle dog; conditions: male, beagle, dog, in vivo, iv, 3 mg/kg
AUC(0-inf) values, listed per item
Record the value in ng·h/mL, omitting the unit from your answer.

CC1(C)Oc2ccc(C#N)cc2[C@@H](N2CCCC2=O)[C@@H]1OP(=O)(O)O [CKLP1] : 89000

Would you kindly look at the next entry?
What does the record list as AUC(0-inf) for CC1(C)Oc2ccc(C#N)cc2[C@@H](N2CCCC2=O)[C@@H]1O [Levcromakalim, levcromakalim, reference compound] ?
518
